Hi there, I'd appreciate the recorded cell viability for every entry that follows.
test system: Calu-3; assay: cell viability relative to DMSO; higher = less toxic; settings: 72 h; 10 nM
One number for each entry, in %.

COMPOUND | cell viability / %
Oc1ccc2c3c1O[C@H]1c4[nH]c5ccccc5c4C[C@@]4(O)[C@@H](C2)N(CC2CC2)CC[C@]314 | 98.5
OCCC#Cc1nc(-c2ccc(F)cc2)c(-c2ccncc2)n1CCCc1ccccc1 | 100
CC(=O)Nc1ccc(Cc2ccc(NC(C)=O)cc2)cc1 | 99.9
CCC1=C(C)CN(C(=O)NCCc2ccc(S(=O)(=O)NC(=O)N[C@H]3CC[C@H](C)CC3)cc2)C1=O [glimepiride] | 104
CCC[C@@H](NC(=O)N1C(=O)C(CC)(CC)[C@@H]1Oc1ccc(C(=O)N2CCN(C)CC2)cc1)c1ccc2c(c1)OCO2 | 110
C[C@@H](CN)CC(=O)O | 104
O=C(O)Cc1cccc(OCCCN(Cc2cccc(C(F)(F)F)c2Cl)CC(c2ccccc2)c2ccccc2)c1 | 101
NC(=O)c1nc(Nc2ccccc2)sc1NC(=O)C1CCCCC1 | 84.9

List the reported cell viability of each compound below.
1. CN(Cc1ccccc1)C(=O)[C@H](Cc1ccc2ccccc2c1)NC(=O)[C@@H]1C[C@@H](O)CN1C(=O)c1cn(C)c2ccccc12
2. C=C1C[C@]23C[C@@]1(O)CC[C@H]2[C@@]12C=C[C@H](O)[C@@](C)(C(=O)O1)[C@H]2[C@@H]3C(=O)O
3. NC(CO)(CO)CO
4. CCN(CC)CCOCCOC(=O)C(CC)(CC)c1ccccc1
5. CC[C@H](C)[C@H](NC(=O)[C@H](Cc1ccc(O)cc1)NC(=O)[C@@H](NC(=O)[C@H](CCCNC(=N)N)NC(=O)[C@@H](N)CC(=O)O)C(C)C)C(=O)N[C@@H](Cc1c[nH]cn1)C(=O)N1CCC[C@H]1C(=O)O
6. CN1C(=O)N[C@H](Cc2c[nH]c3c(Cl)cccc23)C1=O
7. NC(N)=Nc1nc(CSCC/C(N)=N/S(N)(=O)=O)cs1 [Famotidine]
8. [N-]=[N+]=N[C@]1(CO)O[C@@H](n2ccc(N)nc2=O)[C@H](O)[C@@H]1O

1: 94; 2: 106; 3: 117; 4: 95.8; 5: 90.6; 6: 110; 7: 106; 8: 99.5
